Test: Differential scanning fluorimetry (protein thermal shift; TM1 Fc, TM2 Fab)
Assay type: physicochemical
Details: melting temperature of the Fab domain; Table 11
Experimental: A protein thermal shift assay was carried out by mixing the protein to be assayed with an environmentally sensitive dye (SYPRO Orange, Life Technologies Cat #S-6650) in a phosphate buffered solution (PBS), and monitoring the fluorescence of the mixture in real time as it underwent controlled thermal denaturation. […] At the end of the experiment, the transition melting temperatures (TM1 and TM2) were determined using the Bio-Rad CFX manager software. […]
measured_metric: TM2 (°C)
All answers are understood in °C, so give the number only.

Some entries whose results are on file:
molecule	measured_metric	units	readout_number
SRP2196-B09 (antibody, V domains shown) VH: EVQLVESGGGLVQPEGSLRLSCAASGFNITEYYIHWVRQAPGKGLEWVGYISPNSGSTYYADSVKGRFTISADTSKNTAYLQMNSLRAEDTAVYYCARDSRRYVRSWDYWGQGTLVTVSS VL: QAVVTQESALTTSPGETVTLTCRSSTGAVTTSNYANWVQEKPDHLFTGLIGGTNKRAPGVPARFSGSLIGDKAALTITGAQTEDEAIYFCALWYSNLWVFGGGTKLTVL	TM2	°C	72
SRP2196-A03 (antibody, V domains shown) VH: EVQLVESGGGLVQPGGSLRLSCAASGFNITQYHIHWVRQAPGKGLEWVGYISPNSGSTHEADSVKGRFTISADTSKNTAYLQMNSLRAEDTAVYYCARDSRRYVRGWDYWGQGTLVTVSS VL: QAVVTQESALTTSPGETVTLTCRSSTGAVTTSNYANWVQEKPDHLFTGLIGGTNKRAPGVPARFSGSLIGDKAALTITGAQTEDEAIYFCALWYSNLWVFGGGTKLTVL	TM2	°C	70

Now turn to the next molecule.
Given the entry SRP2196-A01 (antibody, V domains shown) VH: EVQLVESGGGLVQPGGSLRLSCAASGFNITGYYIHWVRQAPGKGLEWVGQISPNSGYTYYADSVKGRFTISADTSKNTAYLQMNSLRAEDTAVYYCARDSRRYVRGWDYWGQGTLVTVSS VL: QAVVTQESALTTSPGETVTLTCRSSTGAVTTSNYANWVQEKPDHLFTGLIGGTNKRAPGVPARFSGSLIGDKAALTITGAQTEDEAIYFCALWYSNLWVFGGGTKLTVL , report its measured TM2.
74

Values were extracted from patent US12226490B2.
